Provenance of the data: patent US20220298237A1

- target: T1, oligopeptide SGPNGTAGIFATYPS (SEQ ID NO: 94)
- T1 construct: Synthetic peptide, part of Loop C of AQP3
- T1 peptide: SGPNGTAGIFATYPS
- assay_info: ELISA on coated peptide
Would you kindly list binding signal (plate reader) for each of these binders?
Please give the numeric answer without any surrounding text.

So what does the record say about binding signal (plate reader) for Antibody C (antibody, mouse IgG2a, kappa, V domains shown, also called anti AQP3 antibody C) VH: QVQLKQSGAELARPGASVKLSCKASGYNFKSYGISWVKQRTGQGLEWIGEIYPGSGNTYYNEKLKGKATLTADKSSSTAYMELRSLTSEDSAVYFCARTYGYDSFPWFAYWGQGTLVTVSS VL: DIVMTQAAPSVPVTPGESVSISCRSSKSLLHSNGNTYLYWFLQRPGQSPQLLIYRVSNLASGVPDRFSGSGSGTAFTLRISRVEAEDEGVYYCMQHLEYPFTFGAGTKLEIKR ? 0.045

Which binding signal (plate reader) is listed for SC-F8 (IgG) (antibody, V domains shown, also called anti AQP3 antibody SC-F8) VH: QTVKESGGRLVTPGGSLTLTCTVSRFSLSNYAMTWVRQAPGKGLEWIGIINNDGISSTWYASWVKGRFTISKTSTTMDLKMTSLTTEDTATYFCARGGTSGYDIWGPGTLVTVSL VL: AQVLTQTPSPVSAAVGGTVTINCQSSPSVYKNYLSWYQQKPGQPPKLLIYGASTLASGVPSRFKGSGSGTQFTLTISDVQCDDAATYYCAGGYRGSSDIFAFGGGTEVVVK ? 2.99

Bench note: what binding signal (plate reader) did BC-H9 (IgG) (antibody, V domains shown, also called anti AQP3 antibody BC-H9) VH: QSLEESGGRLVTPGTPLTLTCTVSGFSLYTYAMGWVRQAPGKGLEWIGIINNDGISSTWYASWVKGRFTISKTSTTMDLKMTSLTTEDTATYFCARGGTSGYDIWGPGTLVTVSL VL: AQGLTQTPSPVSAAVGGTVTINCQSGPSVYKNYLSWYQQKAGQPPKLLIYGASTLASGVPSRFKGSGSGTQFTLTISDVQCDDAATYYCAGGYRGSSDIFAFGGGTEVVVK show? 0.824
